Where these numbers come from: paper PMC12257073

- measurementProtocol: Plasma pharmacokinetics of TP-0903 and metabolites (LC-MS/MS, noncompartmental analysis)
- Type: in vivo, human
- measurementSetup: human, plasma, oral, 25 mg, TP-0903 dose 25mg, Day 1 of course 1, plasma, median (range)
- Excerpt: On days 1 and 10 of cycle 1, plasma samples were collected for PK analysis from a total of 25 patients. […] A validated ultrahigh-performance LC-MS/MS method was developed and used to quantify TP-0903 and its four major metabolites (M2, M3, M4, and M6) in plasma. TP-0903 and its metabolites M2, M3, M4, and M6 were quantified in plasma using solid phase extraction and LC-MS/MS in the Ohio State University Comprehensive Cancer Center Pharmacoanalytical Shared Resource. […]
propertyLabel: Cmax

# compoundStructureString, propertyLabel, result
measured = [
    ("CN1CCN(Cc2ccc(Nc3ncc(Cl)c(Nc4ccccc4S(=O)(=O)N(C)C)n3)cc2)CC1.O=C(O)C(O)C(O)C(=O)O.O=C(O)C(O)C(O)C(=O)O", "Cmax", "2.4 ng/mL"),
]
